Test Protocol: yeast display, Sf9 membrane polyspecificity reagent, FACS + sequencing; frameworks hold sequencing errors
Property Name: polyreactivity (PSR sort gate)

Illustrative cases are given below, each with its answer.
QVQLVESGGGLVQAGGSLRLSCAASGSIFLYYAMGWYRQAPGKERELVAVITSGGITNYADSVKGRFTISRDNAKNTFYLQMNSLKPEDTAVYYCNKEYYITYFDLVYSSLDYWGQGTQVTVSS = low polyreactivity
QVQLVESGGGLVQAGGSLRLSCAASGRSFVLNAMGWYRQAPGKDRELVAAISSGGSTNYADSVKWRFTISRDNAKNTDYLQMNSLKPEDTAVYYCAGQDVNEYSAYYYWGQGTQVTGSS = low polyreactivity
QVQLVESGGGLVQAGGSLRLSCAASGSTFYTNAMGWYRQAPGKEREFVAAISWSGSSTYADSVKGRFTISRDNAKNTVYLQMNSLKPEDTAVYYCAADWFKLRTDYYWGQGTQVTVSS = low polyreactivity
QVQLVDSGGGLVQAGGSLRLSCAASGRIFGVNAMGWYRQAPGKERELVAAINFSGGGTYYADSVKGRFTISRDNAKNTVYLQMNSLKPEDTAVYYCAADGPDYKWYYELDYWGQGTQVTVSS = low polyreactivity

Briefly, polyreactivity (PSR sort gate) measured for QVQVVESGGGLVQEVGSLRLSCDASGRSFHHNVMGWYRQAPGKERELVAAISQSGCSTYYADSVKGRFTISRDNAKNTLYLLINSLKPEDSAVYYCNAGAAGRRYNYWGQGTQVTVSS : low polyreactivity
